Molecular target: EHMT1 (Homo sapiens, UniProt Q9H9B1)
Sequence (Q9H9B1 1-1298): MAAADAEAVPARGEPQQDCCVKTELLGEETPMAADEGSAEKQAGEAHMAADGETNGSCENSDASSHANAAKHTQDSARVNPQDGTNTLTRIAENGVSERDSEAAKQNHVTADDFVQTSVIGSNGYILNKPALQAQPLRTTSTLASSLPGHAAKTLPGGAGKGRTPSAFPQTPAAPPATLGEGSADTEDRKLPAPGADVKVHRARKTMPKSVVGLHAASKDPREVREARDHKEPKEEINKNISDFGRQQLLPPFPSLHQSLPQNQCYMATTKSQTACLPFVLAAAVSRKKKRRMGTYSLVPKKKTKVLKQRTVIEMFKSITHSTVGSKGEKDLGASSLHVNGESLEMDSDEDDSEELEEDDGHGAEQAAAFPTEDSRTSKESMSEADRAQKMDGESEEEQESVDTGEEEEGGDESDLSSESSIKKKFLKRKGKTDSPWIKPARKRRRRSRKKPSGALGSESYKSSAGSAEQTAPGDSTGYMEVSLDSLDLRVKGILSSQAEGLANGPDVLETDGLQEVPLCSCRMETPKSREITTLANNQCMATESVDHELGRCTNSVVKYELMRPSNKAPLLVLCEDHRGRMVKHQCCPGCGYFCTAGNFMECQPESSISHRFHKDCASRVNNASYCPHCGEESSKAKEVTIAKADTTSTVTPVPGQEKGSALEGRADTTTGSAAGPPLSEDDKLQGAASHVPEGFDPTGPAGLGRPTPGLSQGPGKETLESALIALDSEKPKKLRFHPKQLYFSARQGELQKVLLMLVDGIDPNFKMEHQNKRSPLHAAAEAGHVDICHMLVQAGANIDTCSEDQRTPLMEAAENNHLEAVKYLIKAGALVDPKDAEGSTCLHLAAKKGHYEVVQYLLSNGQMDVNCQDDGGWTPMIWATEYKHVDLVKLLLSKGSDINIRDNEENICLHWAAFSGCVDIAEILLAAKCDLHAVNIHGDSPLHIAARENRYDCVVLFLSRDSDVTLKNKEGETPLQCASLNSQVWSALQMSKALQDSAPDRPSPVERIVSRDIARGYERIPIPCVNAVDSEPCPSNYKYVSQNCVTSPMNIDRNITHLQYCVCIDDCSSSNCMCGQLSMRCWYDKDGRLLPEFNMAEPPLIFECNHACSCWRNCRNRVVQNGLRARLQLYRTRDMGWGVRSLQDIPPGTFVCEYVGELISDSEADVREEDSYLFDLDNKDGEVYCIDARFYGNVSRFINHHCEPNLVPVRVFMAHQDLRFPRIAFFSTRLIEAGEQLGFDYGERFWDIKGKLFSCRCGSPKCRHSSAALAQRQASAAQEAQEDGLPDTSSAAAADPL
Assay: EHMT1 enzyme assay on peptide substrate (EHMT1 PEP)
Format: biochemical
Conditions: Table II; read-out: EHMT1 PEP (IC50 μM)
Please provide measured IC50 for the entries that follow.

Example entries begin here.
Compound: CNc1ccnc(Nc2ccc(OC)c(OCCCN3CCCC3)c2)n1
Experimental target: EHMT1 (Homo sapiens, UniProt Q9H9B1)
IC50: < 0.1 µM

Compound: COc1ccc(Nc2nccc(NCCc3ccccn3)n2)cc1OCCCN1CCCC1
Experimental target: EHMT1 (Homo sapiens, UniProt Q9H9B1)
IC50: 0.1 to 1 µM

Compound: COc1ccc(Nc2nccc(NCC3CCN(C(C)=O)CC3)n2)cc1OC(C)CCN1CCCC1 (stereo not drawn)
Experimental target: EHMT1 (Homo sapiens, UniProt Q9H9B1)
IC50: 1 to 10 µM

For every listed record, write down its IC50.
1. CC(=O)N1CCC(CNc2nccc(NCCNC(=O)c3ccc4c(c3)CC(=O)N4)n2)CC1
2. COc1ccc(Nc2nccc(OCC3CCN(C(C)=O)CC3)n2)cc1OCCCN1CCCC1

["> 10 µM", "> 10 µM"]

For every listed record, write down its IC50.
1. COc1ccc(Nc2nccc(NCCc3cccnc3)n2)cc1OCCCN1CCCC1
2. CCCCNc1nccc(C(=O)NC2CCOCC2)n1
3. COc1ccc(Nc2nccc(NCC3CCN(C(C)=O)CC3)n2)cc1NC(=O)CCN1CCCC1

0.1 to 1 µM
> 10 µM
1 to 10 µM

For every listed record, write down its IC50.
1. CNc1ccnc(Nc2ccc(OC)c(OCCN3CCOCC3)c2)n1
2. COc1ccc(Nc2nccc(N3CCC(C(C)(C)O)CC3)n2)cc1OCCCN1CCCC1
3. CCCCNc1nccc(NC2CCNCC2)n1
4. CNC(=O)CNc1ccnc(Nc2ccc(OC)c(OCCCN3CCCC3)c2)n1
5. COc1ccc(Nc2nccc(-n3cc(C)cn3)n2)cc1OCCCN1CCCC1
6. COc1ccc(Nc2nccc(NCC3CCOCC3)n2)cc1NCCCN1CCCC1

1: 1 to 10 µM; 2: 1 to 10 µM; 3: > 10 µM; 4: 0.1 to 1 µM; 5: > 10 µM; 6: 1 to 10 µM

For every listed record, write down its IC50.
1. COc1ccc(Nc2nccc(NC3CCCCC3)n2)cc1OCCCN1CCCC1
2. CC(=O)N1CCC(CNc2ccnc(Nc3cccc(NC(=O)c4ccc5c(c4)CC(=O)N5)c3)n2)CC1
3. COc1ccc(Nc2nccc(NCC3CCN(C(C)=O)CC3)n2)cc1OCCCN1CC[C@@H](F)C1
4. COc1ccc(Nc2nccc3[nH]ncc23)cc1OCCCN1CCCC1

1. 0.1 to 1 µM
2. > 10 µM
3. 0.1 to 1 µM
4. > 10 µM
